Tested on: Haemophilus influenzae (H. influenzae) 49247
Listing: MIC of selected compounds

Record excerpt, results attached:
CCc1c(-c2ccc3c(cnn3C)c2)[nH]c(=O)c(C(=O)O)c1O < 1 µg/mL
CCc1c(-c2ccc3c(c2)cc(CNCc2ccc(OC)cc2)n3C)[nH]c(=O)c(C(=O)O)c1O < 1 µg/mL
CCc1c(-c2ccc3c(c2)OCCN3C)[nH]c(=O)c(C(=O)O)c1O < 1 µg/mL
CCc1c(-c2ccc3c(c2)cc(CNC2(C)CCC2)n3C)[nH]c(=O)c(C(=O)O)c1O.Cl < 1 µg/mL

Query compound follows.
Query string: # input compound: `CCc1c(-c2ccc3c(c2)cc(CNC)n3C)[nH]c(=O)c(C(=O)O)c1O` ; wanted: its MIC
Result string: < 1 µg/mL

---

MIC, Haemophilus influenzae (H. influenzae) 49247: measured values

Record excerpt, results attached:
COMPOUND	SYSTEM TESTED	EXPERIMENTAL ENDPOINT	RECORDED VALUE
CCc1c(-c2ccc3c(c2)cc(CN2CCCN(C)CC2)n3C)[nH]c(=O)c(C(=O)O)c1O.Cl.Cl [Cpd 238]	Haemophilus influenzae (H. influenzae) 49247	MIC	< 1 µg/mL
CCc1c(-c2ccc3c(c2)cc(CNCC2CCN(C)CC2)n3C)[nH]c(=O)c(C(=O)O)c1O.Cl.Cl [Cpd 234]	Haemophilus influenzae (H. influenzae) 49247	MIC	1 to 3.5 µg/mL
CCc1c(-c2ccc3c(c2)cc(CNC2CC2)n3C)[nH]c(=O)c(C(=O)O)c1O.Cl [Cpd 228]	Haemophilus influenzae (H. influenzae) 49247	MIC	< 1 µg/mL

Query string: # input compound: CCc1cc(C(=O)O)c(=O)[nH]c1-c1ccc2c(c1)CCN2C [Cpd 5] ; wanted: its MIC
Result string: < 1 µg/mL

Query string: # input compound: CCc1c(-c2ccc3c(c2)cc(CNCCF)n3C)[nH]c(=O)c(C(=O)O)c1O [Cpd 201] ; wanted: its MIC
Result string: < 1 µg/mL

Query string: # input compound: CCc1c(-c2ccc3c(c2)cc(CN2CCC(C(C)(C)N)C2)n3C)[nH]c(=O)c(C(=O)O)c1O (centres unmarked) [Cpd 185] ; wanted: its MIC
Result string: 1 to 3.5 µg/mL

---

MIC, Haemophilus influenzae (H. influenzae) 49247: measured values

Record excerpt, results attached:
CCc1cc(C(=O)O)c(=O)[nH]c1-c1ccc2c(c1)cc(CO)n2C < 1 µg/mL
CCc1c(-c2ccc3c(c2)cc(CN(C)CC2CC2)n3C)[nH]c(=O)c(C(=O)O)c1O.Cl 1 to 3.5 µg/mL
CCc1c(-c2ccc3c(c2)cc(CN(C)C2CCC2)n3C)[nH]c(=O)c(C(=O)O)c1O.Cl < 1 µg/mL

Query string: # input compound: `CCc1c(-c2ccc3c(c2)cc(CNC2(C)CC2)n3C)[nH]c(=O)c(C(=O)O)c1O` ; wanted: its MIC
Result string: < 1 µg/mL

---

Tested on: E. coli ELZ4251
ASSAY METHOD TEXT: Antibacterial activity, MIC, multi-drug resistant clinical isolate (Table 3)
Type: cell-based
DETAILS: Escherichia coli
EXPERIMENTAL ENDPOINT: MIC

Record excerpt, results attached:
COMPOUND	SYSTEM TESTED	MIC
CCc1c(-c2ccc3c(c2)OCCN3C)[nH]c(=O)c(C(=O)O)c1O	E. coli ELZ4251	3.5 to 12.5 µg/mL
CCc1c(-c2ccc3c(c2)CCN3C)[nH]c(=O)c(C(=O)O)c1O	E. coli ELZ4251	12.5 to 150 µg/mL
CCc1cc(C(=O)O)c(=O)[nH]c1-c1ccc2c(ccn2CC)c1	E. coli ELZ4251	12.5 to 150 µg/mL
CCc1c(-c2ccc3c(c2)cc(CN2C[C@H]4CCC[C@@H](N)[C@H]4C2)n3C)[nH]c(=O)c(C(=O)O)c1O	E. coli ELZ4251	12.5 to 150 µg/mL
CCc1c(-c2ccc3c(c2)cc(CN2C[C@H]4C[C@@H](N(C)C)C[C@H]4C2)n3C)[nH]c(=O)c(C(=O)O)c1O	E. coli ELZ4251	3.5 to 12.5 µg/mL

Query string: # input compound: CCc1c(-c2ccc3c(c2)cc(CN2CC4CC2CN4)n3C)[nH]c(=O)c(C(=O)O)c1O (stereo not shown) ; wanted: its MIC
Result string: 12.5 to 150 µg/mL

Query string: # input compound: CCc1c(-c2ccc3c(c2)cc(CN2CCCC(O)C2)n3C)[nH]c(=O)c(C(=O)O)c1O (stereo not shown) ; wanted: its MIC
Result string: 12.5 to 150 µg/mL

Query string: # input compound: `CCc1c(-c2ccc3c(c2)cc(CNCCF)n3C)[nH]c(=O)c(C(=O)O)c1O` ; wanted: its MIC
Result string: 3.5 to 12.5 µg/mL

Query string: # input compound: `CCc1cc(C(=O)O)c(=O)[nH]c1-c1ccc2c(c1)cc(CN1CCC[C@@H]1CO)n2C` ; wanted: its MIC
Result string: 12.5 to 150 µg/mL

Query string: # input compound: `CCc1c(-c2ccc3c(c2)cc(CN2CCNCC2)n3C)[nH]c(=O)c(C(=O)O)c1O` ; wanted: its MIC
Result string: 12.5 to 150 µg/mL

Query string: # input compound: `C=CCNCc1cc2cc(-c3[nH]c(=O)c(C(=O)O)c(O)c3CC)ccc2n1C.Cl` ; wanted: its MIC
Result string: 1 to 3.5 µg/mL

Query string: # input compound: `CCc1c(-c2ccc3c(c2)cc(CN2C[C@H]4C[C@@H](N)C[C@H]4C2)n3C)[nH]c(=O)c(C(=O)O)c1O` ; wanted: its MIC
Result string: 12.5 to 150 µg/mL

Query string: # input compound: `Cc1c(-c2ccc3c(c2)cc(CNCC2CC2)n3C)[nH]c(=O)c(C(=O)O)c1O` ; wanted: its MIC
Result string: < 1 µg/mL

---

Listing: MIC of selected compounds
Test system: E. coli ELZ4251
ASSAY METHOD TEXT: Antibacterial activity, MIC, multi-drug resistant clinical isolate (Table 3)
Format: cell-based
DETAILS: Escherichia coli

COMPOUND	SYSTEM TESTED	EXPERIMENTAL ENDPOINT	RECORDED VALUE
CCc1c(-c2ccc3c(c2)cc(CN2C[C@H]4C[C@@H](NC)C[C@H]4C2)n3C)[nH]c(=O)c(C(=O)O)c1O [Cpd 289]	E. coli ELZ4251	MIC	12.5 to 150 mg/L
CCc1c(-c2ccc3c(c2)cc2n3CCC2N2CCCC2)[nH]c(=O)c(C(=O)O)c1O (stereo not shown) [Cpd 304]	E. coli ELZ4251	MIC	12.5 to 150 mg/L
CCc1c(-c2ccc3c(c2)cc(CN2CCOCC2)n3C)[nH]c(=O)c(C(=O)O)c1O [Cpd 168]	E. coli ELZ4251	MIC	12.5 to 150 mg/L

Query compound follows.
Query string: # input compound: Cn1c(CN2CCCC2)cc2cc(-c3[nH]c(=O)c(C(=O)O)c(O)c3C3CC3)ccc21 [Cpd 323] ; wanted: its MIC
Result string: 3.5 to 12.5 mg/L

---

MIC, Haemophilus influenzae (H. influenzae) 49247: measured values

Record excerpt, results attached:
COMPOUND	EXPERIMENTAL ENDPOINT	RECORDED VALUE
CCc1cc(C(=O)O)c(=O)[nH]c1-c1ccc2c(cnn2C)c1	MIC	< 1 µg/mL
CCc1c(-c2ccc3c(c2)cc(CN2C[C@H]4CCC[C@@H](N(C)C)[C@H]4C2)n3C)[nH]c(=O)c(C(=O)O)c1O	MIC	1 to 3.5 µg/mL
CCc1c(-c2ccc3c(c2)cc(CN2CC(N)C2)n3C)[nH]c(=O)c(C(=O)O)c1O	MIC	3.5 to 12.5 µg/mL
CCc1c(-c2ccc3c(c2)cc(CN2CCC(C)CC2)n3C)[nH]c(=O)c(C(=O)O)c1O	MIC	1 to 3.5 µg/mL
CCc1c(-c2ccc3c(c2)cc(CN2CCCC(N(C)C)C2)n3C)[nH]c(=O)c(C(=O)O)c1O (centres unmarked)	MIC	3.5 to 12.5 µg/mL

Query string: # input compound: `CCc1c(-c2ccc3c(c2)cc(CN2CCOCC2)n3C)[nH]c(=O)c(C(=O)O)c1O` ; wanted: its MIC
Result string: < 1 µg/mL

Query string: # input compound: CCc1c(-c2ccc3c(c2)cc(CN2CC4CCCNC4C2)n3C)[nH]c(=O)c(C(=O)O)c1O (centres unmarked) ; wanted: its MIC
Result string: 1 to 3.5 µg/mL

Query string: # input compound: `CCc1c(-c2ccc3c(c2)oc(=O)n3C)[nH]c(=O)c(C(=O)O)c1O` ; wanted: its MIC
Result string: < 1 µg/mL

Query string: # input compound: `CCc1c(-c2ccc3c(c2)cc(C)n3C)[nH]c(=O)c(C(=O)O)c1O` ; wanted: its MIC
Result string: < 1 µg/mL

Query string: # input compound: `Cc1c(-c2ccc3c(c2)cc(CN2CCC2)n3C)[nH]c(=O)c(C(=O)O)c1O` ; wanted: its MIC
Result string: 1 to 3.5 µg/mL

Query string: # input compound: `CCc1c(-c2cnc3c(ccn3C)c2)[nH]c(=O)c(C(=O)O)c1O` ; wanted: its MIC
Result string: 1 to 3.5 µg/mL

Query string: # input compound: `CCc1c(-c2ccc3c(c2)cc(CN2CCC(N4CCCCC4)CC2)n3C)[nH]c(=O)c(C(=O)O)c1O` ; wanted: its MIC
Result string: 1 to 3.5 µg/mL

Query string: # input compound: `Cn1ccc2cc(-c3[nH]c(=O)c(C(=O)O)c(O)c3C3CC3)ccc21` ; wanted: its MIC
Result string: 3.5 to 12.5 µg/mL

Query string: # input compound: `CNCc1cc2cc(-c3[nH]c(=O)c(C(=O)O)c(O)c3C)ccc2n1C` ; wanted: its MIC
Result string: 1 to 3.5 µg/mL

Query string: # input compound: `CCc1cc(C(=O)O)c(=O)[nH]c1-c1ccc2c(ccn2CC)c1` ; wanted: its MIC
Result string: < 1 µg/mL

Query string: # input compound: `CCc1c(-c2ccc3c(ccn3CC)c2)[nH]c(=O)c(C(=O)O)c1O` ; wanted: its MIC
Result string: < 1 µg/mL

Query string: # input compound: `CCNCc1cc2cc(-c3[nH]c(=O)c(C(=O)O)c(O)c3CC)ccc2n1C` ; wanted: its MIC
Result string: < 1 µg/mL
